# pKd listing for each entry below
- targetDesc: T1, CA125, human TAT10772 shed antigen (human, UniProt Q8WXI7 1-14451, limits assumed)
- T1 construct: domain: entire shed antigen; Bought reagent; also called CA125 polypeptide
- methodNotes: ELISA, IgG, CA125
pKd: −log10 of the molar value.

| binder | pKd |
| --- | --- |
| 3A5v6 (SEQ ID NO: 203) (antibody, V domains shown, Humanized IgG) VH: EVQLVESGGGLVQPGGSLRLSCAASGYSITNDYAWNWVRQAPGKGLEWVGYINYSGYTTYNPSLKSRFTISRDTSKNTFYLQMNSLRAEDTAVYYCARWDSGLTYWGQGTLVTVSS VL: DIQMTQSPSSLSASVGDRVTITCKASDLIHNWLAWYQQKPGKAPKLLIYGATSLETGVPSRFSGSGSGTDFTLTISSLQPEDFATYYCQQYWTTPFTFGQGTKVEIKR | 8.36 |
| 3A5v7 (SEQ ID NO: 204) (antibody, V domains shown, Humanized IgG) VH: EVQLVESGGGLVQPGGSLRLSCAASGYSITNDYAWNWVRQAPGKGLEWVGYINYSGYTTYNPSLKSRFTISRDTSKNTLYLQMNSLRAEDTAVYYCARWKSGLDSWGQGTLVTVSS VL: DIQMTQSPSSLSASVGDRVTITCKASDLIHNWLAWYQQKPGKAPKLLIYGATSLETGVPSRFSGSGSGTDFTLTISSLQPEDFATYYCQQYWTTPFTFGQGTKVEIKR | 8.92 |
| 3A5v5 (SEQ ID NO: 202) (antibody, V domains shown, Humanized IgG) VH: EVQLVESGGGLVQPGGSLRLSCAASGYSITNDYAWNWVRQAPGKGLEWVGYINYSGYTTYNPSLKSRFTISRDTSKNTFYLQMNSLRAEDTAVYYCARWDAGLTYWGQGTLVTVSS VL: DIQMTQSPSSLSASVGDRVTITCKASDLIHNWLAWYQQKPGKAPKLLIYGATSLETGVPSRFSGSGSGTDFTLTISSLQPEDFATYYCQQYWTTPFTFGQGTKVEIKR | 8.09 |
| 3A5v4 (SEQ ID NO: 201) (antibody, V domains shown, Humanized IgG) VH: EVQLVESGGGLVQPGGSLRLSCAASGYSITNDYAWNWVRQAPGKGLEWVGYINYSGYTTYNPSLKSRFTISRDTSKNTLYLQMNSLRAEDTAVYYCARWTSGLDYWGQGTLVTVSS VL: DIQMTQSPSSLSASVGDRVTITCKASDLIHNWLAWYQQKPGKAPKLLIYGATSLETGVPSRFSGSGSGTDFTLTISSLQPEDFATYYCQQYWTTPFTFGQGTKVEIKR | 9.52 |
| 3A5v1 (SEQ ID NO: 198) (antibody, V domains shown, Humanized IgG) VH: EVQLVESGGGLVQPGGSLRLSCAASGYSITNDYAWNWVRQAPGKGLEWVGYINYSGYTTYNPSLKSRFTISRDTSKNTLYLQMNSLRAEDTAVYYCARWASGLDYWGQGTLVTVSS VL: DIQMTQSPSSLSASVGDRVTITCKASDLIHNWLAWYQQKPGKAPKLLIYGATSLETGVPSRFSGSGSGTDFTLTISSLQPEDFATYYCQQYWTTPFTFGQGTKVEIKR | 9.22 |
